biological target: Factor XIa (Homo sapiens (Human), UniProt P03951)
Sequence (P03951 388-625): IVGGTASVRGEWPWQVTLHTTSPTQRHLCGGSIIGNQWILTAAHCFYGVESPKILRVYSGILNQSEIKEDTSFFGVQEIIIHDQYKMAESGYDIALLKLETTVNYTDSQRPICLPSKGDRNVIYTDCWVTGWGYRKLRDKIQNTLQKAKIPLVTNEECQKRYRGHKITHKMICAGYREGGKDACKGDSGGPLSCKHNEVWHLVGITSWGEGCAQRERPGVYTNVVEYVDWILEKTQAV
Sequence (P03951 19-387 partner): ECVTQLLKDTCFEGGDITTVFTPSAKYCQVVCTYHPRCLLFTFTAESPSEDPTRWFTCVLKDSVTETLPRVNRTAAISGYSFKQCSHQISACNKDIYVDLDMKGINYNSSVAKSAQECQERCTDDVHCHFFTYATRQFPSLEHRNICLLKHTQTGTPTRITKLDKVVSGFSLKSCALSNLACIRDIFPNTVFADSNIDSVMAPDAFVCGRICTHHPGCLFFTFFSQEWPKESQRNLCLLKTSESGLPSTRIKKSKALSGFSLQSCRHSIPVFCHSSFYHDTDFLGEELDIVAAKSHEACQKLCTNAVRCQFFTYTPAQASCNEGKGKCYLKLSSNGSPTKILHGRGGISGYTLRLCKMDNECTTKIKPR

- Smiles representation: "CC[C@@H](NC(=O)N1C(=O)[C@H](Cc2cc(C)nc(N)c2)[C@H]1C(=O)N(C)c1cnn(C)c1)c1ccc(F)cc1"
  IC50: "10 to 100 nM"
- Smiles representation: "CC[C@@H](NC(=O)N1C(=O)[C@H](Cc2ccnc(NC)c2)[C@H]1C(=O)N(C)c1ccnn1C)c1cccc(Cl)c1"
  IC50: "10 to 100 nM"
- Smiles representation: "CC[C@@H](NC(=O)N1C(=O)[C@H](Cc2ccnc(N)c2)[C@H]1C(=O)N(C)c1nccn1C)c1ccc(C)cc1Cl"
  IC50: "< 10 nM"

====

experiment: Caco-2 cell permeability assay; assay type: in vitro ADME, human; settings: human, Caco-2, apical to basolateral, 60 min, 37° C.

- Compound: "CC[C@@H](NC(=O)N1C(=O)[C@H](Cc2ccnc(N)c2)[C@H]1C(=O)N(C)c1nccn1C)c1cccc(C)c1 [Compound 1-80]"
  Papp A→B at 60 min, 10 μM: "< 10 ×10⁻⁶ cm/s"
- Compound: "CC[C@@H](NC(=O)N1C(=O)[C@H](Cc2cc(C)nc(N)c2)[C@H]1C(=O)N(C)c1ccn(C)n1)c1cccc(C)c1 [Compound 1-22]"
  Papp A→B at 60 min, 10 μM: "< 10 ×10⁻⁶ cm/s"
- Compound: "CC[C@@H](NC(=O)N1C(=O)[C@H](Cc2cc(C)nc(NC)c2)[C@H]1C(=O)N(C)c1nccn1C)c1cccc(Cl)c1 [Compound 1-46]"
  Papp A→B at 60 min, 10 μM: "11 to 30 ×10⁻⁶ cm/s"
- Compound: "CN(C(=O)[C@@H]1[C@@H](Cc2ccnc(N)c2)C(=O)N1C(=O)N[C@@H](C1CCCCC1)C(F)(F)F)c1ccn(C)n1 [Compound 1-32]"
  Papp A→B at 60 min, 10 μM: "11 to 30 ×10⁻⁶ cm/s"
- Compound: "CC[C@@H](NC(=O)N1C(=O)[C@H](Cc2ccnc(N)c2)[C@H]1C(=O)N(C)c1ccn(C)n1)c1ccccc1 [Compound 1-3]"
  Papp A→B at 60 min, 10 μM: "< 10 ×10⁻⁶ cm/s"
- Compound: "CC[C@@H](NC(=O)N1C(=O)[C@H](Cc2ccnc(N)c2)[C@H]1C(=O)N(C)c1ccn(C)n1)c1cccc(Cl)c1 [Compound 1-91]"
  Papp A→B at 60 min, 10 μM: "< 10 ×10⁻⁶ cm/s"
- Compound: "CC[C@@H](NC(=O)N1C(=O)[C@H](Cc2cc(C)nc(N)c2)[C@H]1C(=O)N(C)c1ccnn1C)C1CCCCC1 [Compound 1-67]"
  Papp A→B at 60 min, 10 μM: "11 to 30 ×10⁻⁶ cm/s"
- Compound: "CC[C@@H](NC(=O)N1C(=O)[C@H](Cc2ccnc(N)c2)[C@H]1C(=O)N(C)c1ccnn1C)C1CCCCC1 [Compound 1-63]"
  Papp A→B at 60 min, 10 μM: "11 to 30 ×10⁻⁶ cm/s"
- Compound: "CC[C@@H](NC(=O)N1C(=O)[C@H](Cc2ccnc(N)c2)[C@H]1C(=O)N(C)c1ccsc1)c1ccccc1 [Compound 1-9]"
  Papp A→B at 60 min, 10 μM: "11 to 30 ×10⁻⁶ cm/s"
- Compound: "CC[C@@H](NC(=O)N1C(=O)[C@H](Cc2cc(C)nc(N)c2)[C@H]1C(=O)N(C)c1ccnn1C)c1ccc(C)c(F)c1 [Compound 1-155]"
  Papp A→B at 60 min, 10 μM: "< 10 ×10⁻⁶ cm/s"
- Compound: "CC[C@@H](NC(=O)N1C(=O)[C@H](Cc2ccnc(N)c2)[C@H]1C(=O)N(C)c1nccn1C)c1cccc(Cl)c1 [Compound 1-35]"
  Papp A→B at 60 min, 10 μM: "< 10 ×10⁻⁶ cm/s"

====

biological target: Factor XIa (Homo sapiens (Human), UniProt P03951); assay: Factor XIa enzyme inhibition assay (dose response, fluorogenic AMC substrate); assay type: biochemical; settings: read-out: hFXIa IC50
pIC50: −log10 of the molar value.

- Molecule: "CC[C@@H](NC(=O)N1C(=O)[C@H](Cc2ccnc(N)c2)[C@H]1C(=O)N(C)c1nccn1C)c1cc(F)ccc1F [Compound 1-84]"
  pIC50: "> 8.00"
- Molecule: "CC[C@@H](NC(=O)N1C(=O)[C@H](Cc2cc(C)nc(N)c2)[C@H]1C(=O)N(C)C1=NCC(=O)N1C)c1ccccc1 [Compound 1-148]"
  pIC50: "6.00 to 7.00"
- Molecule: "CC[C@@H](NC(=O)N1C(=O)[C@H](Cc2ccnc(N)c2)[C@H]1C(=O)N(C)c1nccn1C)c1ccc(F)c(C)c1 [Compound 1-117]"
  pIC50: "> 8.00"

====

pIC50: −log10 of the molar value.
This section lists pIC50 readings for Factor XIa (Homo sapiens (Human), UniProt P03951).

- Smiles representation: "CC[C@@H](NC(=O)N1C(=O)[C@H](Cc2cc(C)nc(N)c2)[C@H]1C(=O)N(C)C1=NC(=O)CN1C)c1ccccc1"
  pIC50: "7.00 to 8.00"
- Smiles representation: "CC[C@@H](NC(=O)N1C(=O)[C@H](Cc2cc(C)nc(N)c2)[C@H]1C(=O)N(C)c1cnn(C)c1)c1cccc(C)c1F"
  pIC50: "> 8.00"
- Smiles representation: "CC[C@H](NC(=O)N1C(=O)[C@H](Cc2ccnc(N)c2)[C@H]1C(=O)N(C)c1nccn1C)c1cc(F)ccc1F"
  pIC50: "6.00 to 7.00"
- Smiles representation: "CC[C@@H](NC(=O)N1C(=O)[C@H](Cc2ccnc(NC(=O)OC(C)(C)C)c2)[C@H]1C(=O)N(C)c1cnn(C)c1)c1cccc(Cl)c1"
  pIC50: "< 6.00"
- Smiles representation: "CC[C@@H](NC(=O)N1C(=O)[C@H](Cc2cc(C)nc(N)c2)[C@H]1C(=O)N(C)c1nccn1C)c1cc(C)ccc1F"
  pIC50: "7.00 to 8.00"
- Smiles representation: "CC[C@@H](NC(=O)N1C(=O)[C@H](Cc2cc(C)nc(N)c2)[C@H]1C(=O)N(C)c1cnn(C)c1)c1cc(C)ccc1C"
  pIC50: "7.00 to 8.00"
- Smiles representation: "CC[C@@H](NC(=O)N1C(=O)[C@H](Cc2cc(C)nc(N)c2)[C@H]1C(=O)N(C)c1ccnn1C)c1ccc(F)cc1C"
  pIC50: "> 8.00"
- Smiles representation: "CC[C@@H](NC(=O)N1C(=O)[C@H](Cc2cc(C)nc(N)c2)[C@H]1C(=O)N(C)c1cnn(C)c1)c1cccc(F)c1C"
  pIC50: "7.00 to 8.00"
- Smiles representation: "CC[C@@H](NC(=O)N1C(=O)[C@H](Cc2ccnc(N)c2)[C@H]1C(=O)N(C)c1cnn(C)c1)c1ccc(C)c(F)c1F"
  pIC50: "> 8.00"
- Smiles representation: "CC[C@@H](NC(=O)N1C(=O)[C@H](Cc2ccnc(N)c2)[C@H]1C(=O)N(C)c1nccn1C)c1ccc(C)c(C)c1F"
  pIC50: "> 8.00"
